- methodNotes: Bioavailability of levosimendan following buccal and intravenous administration in dogs (plasma concentration)
- Format: in vivo, beagle dogs
- experimentalConditions: beagle, dog, plasma, iv, 0.02 mg/kg, dog plasma, iv 0.02 mg/kg, 40 min, Dog 3
measuredEndpoint: concentration at 40 min
Please make sure the unit comes right after the number.

Sample CC1CC(=O)NN=C1c1ccc(NN=C(C#N)C#N)cc1 (single isomer, unassigned; (-)) — what was its concentration at 40 min? 58 ng/mL

* * *

- methodNotes: Bioavailability of levosimendan following buccal and intravenous administration in dogs (plasma concentration)
- Assay type: in vivo, beagle dogs
- experimentalConditions: beagle, dog, plasma, other: buccal spray, 0.02 mg/kg, dog plasma, buccal spray 0.02 mg/kg, 40 min, Dog 3
measuredEndpoint: concentration at 40 min (ng/mL)
Just the number please, in ng/mL, no unit attached.

// query concentration at 40 min value for entry CC1CC(=O)NN=C1c1ccc(NN=C(C#N)C#N)cc1 (single isomer, unassigned; (-)) [Levosimendan] 25
